# credit: PubChem BioAssay (Tox21)

assay remarks: qHTS assay to identify small molecule antagonists of the androgen receptor (AR) signaling pathway using the MDA cell line in the presence of 0.5 nM R1881 - cell viability counter screen (AID 1259242); also: nearly all actives have a fitted effect of over 45% in size
setup conditions: MDA-kb2 viability, CellTiter-Fluor protease fluorescence, 16 h; series mostly up to 92.4 µM
Inconclusive results are not listed. The source made the active and inactive calls. Calls follow the shape of the dose curve; as a rule, active = well fitted cell-killing curve with a large enough effect in the repeat runs; inconclusive = weak or mixed curves, or effect the other way; inactive = flat fitted curve, though single readings scatter.
Select the matching outcome among 1 (active), -1 (inactive)

Solved entries:
Clc1cccnc1 : -1
O=C1NCN(c2ccccc2)C12CCN(CCCC(c1ccc(F)cc1)c1ccc(F)cc1)CC2 : 1
C1CC(COCC2CO2)CCC1COCC1CO1 (stereo not given) : -1
OCCCS : -1
CC(=O)c1ccccc1N : -1

Now for another entry.
Inquiry: Assay result, entry CCCCNc1c(C(=O)OCC)c(C)nc2c1cnn2CC — outcome?
Reply text: -1
